Recorded AmpC inhibition values for a group of compounds are listed next.
System: AmpC beta-lactamase (E. coli)
Test: AmpC inhibition relative to DMSO; higher = more inhibition
Settings: 4 µM; detergent: 0.01% Triton X-100
Report the figure in % without appending any unit label.

Compound	Assay endpoint	Numeric readout
COc1cc(/C=C/C(=O)CC(=O)/C=C/c2ccc(O)c(OC)c2)ccc1O	AmpC inhibition	10.4

I'd like to know its AmpC inhibition. The compound in question is CC(Cc1ccc(O)c(O)c1)C(C)Cc1ccc(O)c(O)c1 (stereo not given)
0.262

I'd like to know its AmpC inhibition. The compound in question is CC1(C)CCC2=C(O1)c1ccccc1C(=O)C2=O
10.1

I'd like to know its AmpC inhibition. The compound in question is CC(C)([C@](C1=O)(C2=O)C/C=C(C)\C)[C@@H](C[C@]31C[C@@H](C(C)(OC3=C2C(C4=CC(O)=C(C=C4)O)=O)C)C/C=C(C)\C)C/C=C(C)\C
8.42

I'd like to know its AmpC inhibition. The compound in question is C=C1C(=O)O[C@H](CCC)[C@H]1C(=O)O
0.817

I'd like to know its AmpC inhibition. The compound in question is O=C1/C(=C/c2ccc(O)c(Br)c2)CCC/C1=C\c1ccc(O)c(Br)c1
4.59

I'd like to know its AmpC inhibition. The compound in question is O=C(OCC)/C(C(OCC)=O)=C\CCCCCCCCCCCCCC
5.31

###

Recorded AmpC inhibition values for a group of compounds are listed next.
Tested on: AmpC beta-lactamase (E. coli)
Experiment: AmpC inhibition relative to DMSO; higher = more inhibition
Conditions: 33 µM; detergent: 0.01% Triton X-100
Report the figure in % without appending any unit label.

Compound	Unit of measure	AmpC inhibition
C=C1C(=O)O[C@H](CCC)[C@H]1C(=O)O	%	0.478
COC1=CC=C(S(=O)(O/N=C2C=C(C(C(C)=C\2)=O)C)=O)C=C1	%	6.35
O=C1/C(=C/c2ccc(O)c(Br)c2)CCC/C1=C\c1ccc(O)c(Br)c1	%	5.98

Now look at this entry.
I'd like to know its AmpC inhibition. The compound in question is Cc1cc(-c2ccccc2)cc(C(=O)NNS(=O)(=O)c2ccccc2)c1F
1.15

###

System: AmpC beta-lactamase (E. coli)
Test: AmpC inhibition relative to DMSO; higher = more inhibition
Settings: 11 µM; detergent: no detergent
Recorded AmpC inhibition values for a group of compounds are listed next.
Report the figure in % without appending any unit label.

Compound	Unit of measure	Numeric readout
CCCCCCCCCCCC1=C(O)C(=O)C=C(O)C1=O	%	17.5

I'd like to know its AmpC inhibition. The compound in question is CCCCCCCc1ccc(CCc2cccc(O)c2C(=O)O)cc1
61

I'd like to know its AmpC inhibition. The compound in question is CCCCCOc1ccc(/C=C\c2cccc(O)c2C(=O)O)cc1
27.2

I'd like to know its AmpC inhibition. The compound in question is C=C1C(=O)O[C@H](CCC)[C@H]1C(=O)O
-0.423

I'd like to know its AmpC inhibition. The compound in question is CC(Cc1ccc(O)c(O)c1)C(C)Cc1ccc(O)c(O)c1 (configuration not stated)
23.2

I'd like to know its AmpC inhibition. The compound in question is CCCCCCCCCCCCCCCc1cccc(O)c1C(=O)O
97.2

I'd like to know its AmpC inhibition. The compound in question is O=C1/C(=C/c2ccc(O)c(Br)c2)CCC/C1=C\c1ccc(O)c(Br)c1
55.4
